- system-name: human B1R receptor (Homo sapiens)
- Construct: host or cells: CHO K1 cells (Chinese hamster ovary), stably transfected
- Sequence (P46663 1-353): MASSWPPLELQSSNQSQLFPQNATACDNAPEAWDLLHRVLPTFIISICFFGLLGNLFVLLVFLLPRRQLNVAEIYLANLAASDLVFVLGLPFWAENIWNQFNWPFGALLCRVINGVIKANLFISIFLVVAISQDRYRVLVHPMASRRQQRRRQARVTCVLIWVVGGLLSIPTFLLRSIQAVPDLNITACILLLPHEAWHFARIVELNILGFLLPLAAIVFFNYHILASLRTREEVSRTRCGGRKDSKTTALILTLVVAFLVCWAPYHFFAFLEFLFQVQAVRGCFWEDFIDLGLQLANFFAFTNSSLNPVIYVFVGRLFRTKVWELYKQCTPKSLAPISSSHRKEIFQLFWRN
- assay-summary: Functional study on the bradykinin receptor 1 (B1R), FLIPR Ca2+ assay, hB1R cells
- Format: cell-based
- condition-label: CHO-K1, test substance 10 μM, agonist Lys-Des-Arg9-bradykinin 0.5 nM, % inhibition compared with the maximum achievable inhibition, read-out: B1R Antagonism, human [10 μM] % Inhibition
// inhibition at 10 µM lookup, one value per entry
measure: inhibition at 10 µM (%)

{"compound": "COc1cc(C)c(S(=O)(=O)N2CCCCC2COCC(=O)NCC(c2ccccc2Cl)N2CCOCC2)c(C)c1 (stereo not drawn) [Example 251]", "measure": "inhibition at 10 µM", "result-number": 45.8}
{"compound": "COc1cc(C)c(S(=O)(=O)N2CCCC2COCC(=O)N(C)[C@H]2CCN(Cc3ccccc3)C2)c(C)c1 (stereo partly drawn) [Example 303]", "measure": "inhibition at 10 µM", "result-number": 106}
{"compound": "O=C(COCC1CCCCN1S(=O)(=O)c1ccc(Cl)c(Cl)c1)N1CCN(c2ccccc2)CC1 (stereo not drawn) [Example 56]", "measure": "inhibition at 10 µM", "result-number": 62.7}
{"compound": "COc1cc(C)c(S(=O)(=O)N2CC[C@H]2COCC(=O)N2CCN(C3CCN(C)CC3)CC2)c(C)c1 [Example 135]", "measure": "inhibition at 10 µM", "result-number": 103}
{"compound": "O=C(COCC1CCCCN1S(=O)(=O)c1cccc(Br)c1)N1CCN(c2ccncc2)CC1 (stereo not drawn) [Example 122]", "measure": "inhibition at 10 µM", "result-number": 12.1}
{"compound": "COc1cc(C)c(S(=O)(=O)N2CCC[C@H]2COCC(=O)N2CCN(CC3CCN(C)CC3)CC2)c(C)c1 [Example 181]", "measure": "inhibition at 10 µM", "result-number": 105}
{"compound": "COc1ccc(S(=O)(=O)N2c3ccccc3CC2COCC(=O)NCC2CCCN(Cc3ccccc3)C2)cc1 (stereo not drawn) [Example 422]", "measure": "inhibition at 10 µM", "result-number": 48}
{"compound": "O=C(COCC1CCCCN1S(=O)(=O)c1c(Cl)cccc1Cl)N1CCN(Cc2ccccc2)CC1 (stereo not drawn) [Example 480]", "measure": "inhibition at 10 µM", "result-number": 101}
{"compound": "O=C(COCC1CCCCN1S(=O)(=O)c1c(Cl)cc(Cl)cc1Cl)NCc1ccc(N2CCCCC2)cc1 (stereo not drawn) [Example 74]", "measure": "inhibition at 10 µM", "result-number": 50.4}
{"compound": "COc1cc(C)c(S(=O)(=O)N2CCCCC2COCC(=O)NCc2ccc(Oc3cnccn3)cc2)c(C)c1 (stereo not drawn) [Example 196]", "measure": "inhibition at 10 µM", "result-number": 100}
{"compound": "COc1cc(C)c(S(=O)(=O)N2CCCCC2COCC(=O)N2CCN(C)CC2)c(C)c1 (stereo not drawn) [Example 242]", "measure": "inhibition at 10 µM", "result-number": 102}
{"compound": "COc1cc(C)c(S(=O)(=O)N2CCCC2COCC(=O)NCc2ccc(N3CCOCC3)cc2)c(C)c1 (stereo not drawn) [Example 579]", "measure": "inhibition at 10 µM", "result-number": 39.4}
{"compound": "O=C(COCC1CCCN1S(=O)(=O)c1c(Cl)cccc1Cl)NCC1CCCN(Cc2ccccc2)C1 (stereo not drawn) [Example 323]", "measure": "inhibition at 10 µM", "result-number": 105}
{"compound": "COc1cc(C)c(S(=O)(=O)N2CCCCC2COCC(=O)N2CCN(Cc3nc(-c4ccccc4)[nH]c3Cl)CC2)c(C)c1 (stereo not drawn) [Example 197]", "measure": "inhibition at 10 µM", "result-number": 104}
{"compound": "O=C(COCC1CCCN1S(=O)(=O)c1c(Cl)cccc1Cl)N1CCN(Cc2ccc(Cl)c(Cl)c2)CC1 (stereo not drawn) [Example 357]", "measure": "inhibition at 10 µM", "result-number": 79.4}

---

- system-name: human B1R receptor (Homo sapiens)
- Construct: host or cells: CHO K1 cells (Chinese hamster ovary), stably transfected
- assay-summary: Functional study on the bradykinin receptor 1 (B1R), FLIPR Ca2+ assay, hB1R cells
- Type: cell-based
- condition-label: CHO-K1, test substance 10 μM, agonist Lys-Des-Arg9-bradykinin 0.5 nM, % inhibition compared with the maximum achievable inhibition, read-out: B1R Antagonism, human [10 μM] % Inhibition
Label class 1 when inhibition at 10 µM is at or above 90%; otherwise label class 0.

{"molecule": "COc1cc(C)c(S(=O)(=O)N2CCCCC2COCC(=O)N2CCc3cc(N4CCN(C)CC4)ccc3C2)c(C)c1 (stereo not shown)", "category-label": "class 1"}
{"molecule": "COc1cc(C)c(S(=O)(=O)N2CCCCC2COCC(=O)N2CCC(C(=O)N3CCN(C)CC3)CC2)c(C)c1 (stereo not shown)", "category-label": "class 1"}
{"molecule": "COc1cc(OC)cc(N2CCN(C(=O)COCC3CCCCN3S(=O)(=O)c3c(Cl)cc(Cl)cc3Cl)CC2)c1 (stereo not shown)", "category-label": "class 0"}
{"molecule": "COc1cc(C)c(S(=O)(=O)N2CCCCC2COCC(=O)Nc2ccc(Cn3ccnc3)cc2)c(C)c1 (stereo not shown)", "category-label": "class 1"}
{"molecule": "COc1cc(C)c(S(=O)(=O)N2CCCCC2COCC(=O)NCc2cccc(N3CCOCC3)c2)c(C)c1 (stereo not shown)", "category-label": "class 0"}

---

- system-name: human B1R receptor (Homo sapiens)
- Construct: host or cells: CHO K1 cells (Chinese hamster ovary), stably transfected
- Sequence (P46663 1-353): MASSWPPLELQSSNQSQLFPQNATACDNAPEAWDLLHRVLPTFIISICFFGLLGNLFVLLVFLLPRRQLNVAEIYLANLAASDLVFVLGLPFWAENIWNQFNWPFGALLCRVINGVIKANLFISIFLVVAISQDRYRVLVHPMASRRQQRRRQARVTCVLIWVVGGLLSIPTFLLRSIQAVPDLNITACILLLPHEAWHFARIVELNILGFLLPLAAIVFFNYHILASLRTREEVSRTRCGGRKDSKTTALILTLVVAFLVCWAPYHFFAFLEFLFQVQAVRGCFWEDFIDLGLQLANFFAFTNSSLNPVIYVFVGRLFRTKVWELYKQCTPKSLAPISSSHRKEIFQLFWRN
- assay-summary: Functional study on the bradykinin receptor 1 (B1R), FLIPR Ca2+ assay, hB1R cells
- Type: cell-based
- condition-label: CHO-K1, test substance 10 μM, agonist Lys-Des-Arg9-bradykinin 0.5 nM, % inhibition compared with the maximum achievable inhibition, read-out: B1R Antagonism, human [10 μM] % Inhibition
Structures can show the parent of a compound that is named as a salt.
In this section we review reported inhibition at 10 µM values for a set of compounds.

{"compound": "CN(C)CCCN1CCN(C(=O)COCC2CCCCN2S(=O)(=O)c2cccc(C(F)(F)F)c2)CC1 (stereo not drawn)", "inhibition at 10 µM": "62.2%"}
{"compound": "O=C(COCC1CCCCN1S(=O)(=O)c1c(Cl)cc(Cl)cc1Cl)NCc1ccncc1 (stereo not drawn)", "inhibition at 10 µM": "31.5%"}
{"compound": "COc1cc(C)c(S(=O)(=O)N2CCCC2COCC(=O)NCCCN2CCN(Cc3ccccc3)CC2)c(C)c1 (stereo not drawn)", "inhibition at 10 µM": "85.2%"}
{"compound": "COc1cc(C)c(S(=O)(=O)N2CCCC2COCC(=O)N2CCN(Cc3ccc(Cl)c(Cl)c3)CC2)c(C)c1 (stereo not drawn)", "inhibition at 10 µM": "101%"}
{"compound": "COc1cc(C)c(S(=O)(=O)N2CCCC2COCC(=O)NCc2ccc(CN3CCCCC3)cc2)c(C)c1 (stereo not drawn)", "inhibition at 10 µM": "105%"}
{"compound": "Cc1cc(C)c(S(=O)(=O)N2Cc3ccccc3CC2COCC(=O)NCc2ccccc2N2CCN(C)CC2)c(C)c1 (stereo not drawn)", "inhibition at 10 µM": "50.1%"}
{"compound": "COc1cc(C)c(S(=O)(=O)N2CCCC2COCC(=O)N2CCN(c3cccc(C(F)(F)F)c3)CC2)c(C)c1 (stereo not drawn)", "inhibition at 10 µM": "102%"}
{"compound": "COc1cc(C)c(S(=O)(=O)N2CCCCC2COCC(=O)N2CCN(CCN(C(C)C)C(C)C)CC2)c(C)c1 (stereo not drawn)", "inhibition at 10 µM": "105%"}
{"compound": "Cc1cccc(Cl)c1S(=O)(=O)N1CCC[C@H]1COCC(=O)N1CCN(C2CCN(C)CC2)CC1 [Example 162, dihydrochloride]", "inhibition at 10 µM": "99.5%"}
{"compound": "COc1cc(C)c(S(=O)(=O)N2CCCCC2COCC(=O)NC(CN(C)C)c2ccccc2)c(C)c1 (stereo not drawn)", "inhibition at 10 µM": "78.9%"}
{"compound": "O=C(COCC1CCCCN1S(=O)(=O)c1c(Cl)cccc1Cl)N1CCN(c2cccc(C(F)(F)F)c2)CC1 (stereo not drawn)", "inhibition at 10 µM": "72.6%"}
{"compound": "CN1CCCN(C(=O)COCC2CCCCN2S(=O)(=O)c2c(Cl)cccc2Cl)CC1 (stereo not drawn)", "inhibition at 10 µM": "103%"}
{"compound": "COc1cc(C)c(S(=O)(=O)N2CCCC[C@H]2COCC(=O)N2CCC(Oc3ccncc3)CC2)c(C)c1 [Example 186, hydrochloride]", "inhibition at 10 µM": "106%"}
{"compound": "COc1cc(C)c(S(=O)(=O)N2CCCCC2COCC(=O)NCc2ccc(N3CCN(C)CC3)cc2)c(C)c1 (stereo not drawn)", "inhibition at 10 µM": "104%"}
{"compound": "O=C(COCC1CCCCN1S(=O)(=O)c1c(Cl)cccc1Cl)N1CCN(CC2CCCCC2)CC1 (stereo not drawn)", "inhibition at 10 µM": "103%"}
